Experiment: Pharmacokinetic analyses (plasma, non-compartmental)
Type: in vivo, human (patients)
Settings: human, plasma, oral, 150 mg, Erlotinib D14; DL2 erlotinib 150 mg daily alone; N=9
measured-quantity: AUC(0-t)
Write down the value, and be sure its unit follows.

// recorded AUC(0-t) for C#Cc1cccc(Nc2ncnc3cc(OCCOC)c(OCCOC)cc23)c1 : 35200 ng·h/mL

* * *

Assay: Pharmacokinetic analyses (plasma, non-compartmental)
Type: in vivo, human (patients)
Details: human, plasma, oral, 150 mg, Erlotinib D14; DL3 erlotinib 150 mg daily alone; N=7
measured-quantity: Tmax (h)
Note: unit h is implicit; provide only the numeric part.

According to the records, this molecule C#Cc1cccc(Nc2ncnc3cc(OCCOC)c(OCCOC)cc23)c1 displays Tmax of 3.86
